biological target: human sphingosine-1-phosphate receptor 1 (S1P1) (Homo sapiens (Human)); assay: Inhibition of cAMP production (HTRF cAMP HiRange), S1P1 CHO-K1 cells; assay type: cell-based; conditions: inhibition of cAMP production, S1P1 CHO-K1 cells
Sequence (P21453 whole entry, looked up): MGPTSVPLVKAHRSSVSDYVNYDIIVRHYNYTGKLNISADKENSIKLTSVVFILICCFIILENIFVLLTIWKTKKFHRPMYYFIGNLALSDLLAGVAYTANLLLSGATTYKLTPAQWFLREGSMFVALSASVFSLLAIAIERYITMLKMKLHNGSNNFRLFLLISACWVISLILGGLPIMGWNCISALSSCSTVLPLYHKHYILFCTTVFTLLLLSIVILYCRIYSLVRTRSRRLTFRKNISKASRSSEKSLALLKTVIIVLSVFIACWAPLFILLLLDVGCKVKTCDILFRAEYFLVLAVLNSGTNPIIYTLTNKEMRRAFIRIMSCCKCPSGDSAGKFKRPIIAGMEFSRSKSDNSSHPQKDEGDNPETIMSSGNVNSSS
Would you kindly list hS1P1 cAMP pEC50 for each of these molecules?

Example molecules with recorded hS1P1 cAMP pEC50:
Molecule | hS1P1 cAMP pEC50
N#Cc1cc(-c2nnc(-c3ccc4[nH]cnc4c3)o2)ccc1NC1CC1 | >6.5
CCC1(CC)CC(=O)c2cc(-c3nnc(-c4cccnc4)o3)ccc2O1 | <6.5
CCC1(CC)CC(=O)c2cc(-c3nc(-c4ccc5[nH]ncc5c4)no3)ccc2O1 | <6.5
C=CCNc1ccc(-c2nc(-c3ccc4[nH]ncc4c3)no2)cc1C#N | >6.5
CC(C)n1nnc2cc(-c3nc(-c4ccccc4O)no3)ccc21 | <6.5

Fill in hS1P1 cAMP pEC50 for each of the 4 molecules listed.
1. COc1ccccc1-c1nsc(-c2ccc3c(c2)nnn3C(C)C)n1
2. CCC1(CC)CC(=O)c2cc(-c3nc(-c4cnccn4)no3)ccc2O1
3. FC(F)Oc1ccc(-c2noc(-c3ccc4c(c3)nnn4C3CCCC3)n2)cc1
4. COc1ccc(-c2noc(-c3ccc4c(c3)nnn4CC(C)(C)O)n2)c(C)c1 [Compound 647]

1: <6.5; 2: <6.5; 3: >6.5; 4: >6.5
